Tested on: SNB-19 CNS
Assay: NCI tumour cell line growth inhibition, 48 h; in the data active = GI50 below about 0.43 µM; inactive = the rest
Labels: active, inactive

compound	assigned.label
Nc1ccccc1NC(=O)c1ccc(CSc2nc(N3CCOCC3)c3cccn3n2)cc1	inactive
O=C1C=C(Nc2ccccc2)c2ncccc2C1=O	active
COc1ccc(C(=O)/C=C/c2cc3ccccc3[nH]c2=O)cc1	inactive
COc1ccc(OC)c(/C=C/c2nnc(Nc3ccc(Cl)cc3)o2)c1	inactive
CN(C)CC/C=C1\c2ccccc2Sc2ccc(Cl)cc21	inactive
CCc1ccc(C2=C/C(=C/c3ccc(Cl)cc3)C(=O)N2CCc2ccc(S(N)(=O)=O)cc2)cc1	inactive
CCCCCCCCN(CCCCCCCC)C(=N)c1ccnc2ccccc12	inactive
O=S(=O)(NCCNc1cc(-c2cn(-c3ccccc3)nc2-c2cccc(O)c2)ccn1)c1ccc(C(F)(F)F)cc1	inactive
CCC1CCc2nc3sc(C(=O)Nc4ccccc4F)c(N)c3cc2C1 (configuration not stated)	inactive
CCOC(=O)[C@H](CSSc1ncnc2cc[nH]c12)NC(=O)[C@@H](C)c1ccc2cc(OC)ccc2c1	inactive
CCN1C(=O)N(CC)C2C1NN=c1s/c(=C3\C(=O)N(CCC(C)C)c4ccccc43)c(=O)n12 (configuration not stated)	inactive
CC[O-].CC[O-].[O-]c1ccccc1C=Nc1ccccc1.[O-]c1ccccc1C=Nc1ccccc1.[Ti+4]	inactive
CC(=O)[CH-]C(=O)c1ccccc1.CC(=O)[CH-]C(=O)c1ccccc1.O=C([O-])C[O-].O=C([O-])C[O-].[Ti+4]	inactive
Nc1nc(N)c2nc(CNc3ccc(C(=O)CC(CCC(=O)O)C(=O)O)cc3)cnc2n1 (configuration not stated)	inactive
O=C1c2ccccc2C(=O)N1/N=C\c1ccc(Br)cc1	inactive
COc1cc2c(c(OC)c1OC)-c1ccc([O-])c(=O)cc1[C@@H](NC(C)=O)CC2.COc1cc2c(c(OC)c1OC)-c1ccc([O-])c(=O)cc1[C@@H](NC(C)=O)CC2.[Cu+2]	inactive
O=c1ncc(-c2ccc(C(F)(F)F)cc2)c(NC2CCCCCC2)[nH]1	inactive

---

Tested on: SN12C renal
Test: NCI tumour cell line growth inhibition, 48 h
attribute.measured: TGI

compound	attribute.measured	result
CNC(=O)Nc1cc2c3c(c1)CCCN3CCC2	TGI	> 10 µM
c1cncc(C2c3[nH]c4ccccc4c3CCN2CCCN2CCCCC2)c1 (centres undefined)	TGI	> 100 µM
N=c1ccn2c(n1)OC1C(OP(=O)(O)O)C(CO)OC12 (centres undefined)	TGI	> 100 µM
CC(C)[Si](OC12CCC(CC1O)CC2C(=O)O)(C(C)C)C(C)C (centres undefined)	TGI	> 100 µM
Cc1cc(N(CCC#N)CCC#N)ccc1/C=C1/CN(N2C(=O)/C(=C/c3ccc(N(CCC#N)CCC#N)cc3C)N=C2c2ccccc2)C(c2ccccc2)=N1	TGI	> 100 µM
COc1ccc2cc(C(=O)c3ccccc3C(=O)O)ccc2c1	TGI	> 100 µM
Cc1nc(Nc2nnc(-c3cc([N+](=O)[O-])cc([N+](=O)[O-])c3C)o2)sc1C(=O)CC(=O)Cc1nc2ccc(Cl)cc2[nH]c1=O	TGI	> 100 µM
CCOC(=O)C12CCCC1(O)N(NC(=O)c1cccc(Cl)c1)C(C)=C2C(=O)OC (centres undefined)	TGI	> 100 µM
CC(=O)OCc1nc(C#N)c(N)o1	TGI	> 100 µM
O=C(Sc1c(-c2ccccc2)c(=O)n(-c2ccccc2)c(=S)n1-c1ccccc1)c1ccc(Cl)cc1	TGI	> 100 µM
O=C(O)C(=O)Cc1ccc2c(c1)OCO2	TGI	> 100 µM
CCOC(=O)C1C(=O)CC(C)(O)C(C(=O)OCC)C1c1ccc(N(C)C)cc1 (centres undefined)	TGI	> 100 µM
COC(=O)c1cc(NC2OCC(OC(C)=O)C(OC(C)=O)C2OC(C)=O)nc(SC)c1C(=O)OC (centres undefined)	TGI	> 100 µM
C[C@]12CC[C@@H]3c4ccc(OC(=O)c5ccccc5)cc4CC[C@H]3[C@@H]1CCC2OC(=O)c1cccc2c(=O)c3ccccc3[nH]c12 (some centres undefined)	TGI	30.1 µM
O=C(O)/C(Cl)=C(\Cl)Nc1cccc(C(F)(F)F)c1	TGI	> 100 µM
CC1(C)S[C@@H]2[C@H](NC(=O)CCC[C@@H](N)C(=O)O)C(=O)N2[C@H]1C(=O)O	TGI	> 50 µM
C[C@H]1CCC/C=C/[C@@H]2C[C@H](O)C[C@H]2[C@H](O)[C@H](S(=O)c2ccc(O)cc2)CC(=O)O1 (some centres undefined)	TGI	0.489 µM
CS(=O)(=O)c1nc(N)nc2nc[nH]c12	TGI	> 100 µM
COC(=O)[C@@H]1O[C@]12C(CO[Si](C)(C)C(C)(C)C)OC(n1ccc(=O)[nH]c1=O)C2O[Si](C)(C)C(C)(C)C (some centres undefined)	TGI	85.7 µM

---

Test system: OVCAR-4 ovarian
Assay: NCI tumour cell line growth inhibition, 48 h
Below: a set of entries, each annotated with reported TGI.

molecule	TGI
CC1CCCOc2ccc(cc2)C=Nc2ccc(cc2)CCc2ccc(cc2)N=Cc2ccc(cc2)OCCC1 (stereo unspecified)	> 100 µM
CCCC(OCC)(OCC)OCC	> 100 µM
C[C@]12CCC[C@H](OC=O)C1(O)C[C@H](C(=O)O)CC2 (stereo partly specified)	> 100 µM
CCOC(=O)CSc1nc(-c2ccc(OC)cc2)c(C#N)c(=O)[nH]1	> 100 µM
CCOC(=O)/C(=C/c1ccc(OC)c(OC)c1)C(=O)c1ccccc1	60.3 µM
COc1ccc2cc(C(=O)c3ccccc3C(=O)O)ccc2c1	> 100 µM
C=CCNC1=C2C[C@@H](C)C[C@@H](OC)[C@H](OC(=O)CN(C)C)[C@H](C)/C=C(\C)[C@@H](OC(N)=O)[C@H](OC)/C=C\C=C(/C)C(=O)NC(=CC1=O)C2=O	26 µM
CS(=O)(=O)c1nc(N)nc2nc[nH]c12	> 100 µM
COC1=CC(=O)c2ccc(C(C)C)cc2C1(C)C1=NC(C)(C)CO1 (stereo unspecified)	> 100 µM
N=c1c2c(ncn1N)Oc1c(c(-c3ccccc3)nn1-c1ccccc1)C2c1ccc(Cl)cc1 (stereo unspecified)	3.24 µM
CCCCCCCCCOC(=S)NC	42.2 µM
COc1cccc(/C=C(/C(=O)O)c2cc(OC)c(OC)c(OC)c2)c1	> 100 µM
COc1cc(C(=O)C/C(CCC(=O)Nc2ccccc2[N+](=O)[O-])=N\NC(=O)C(N)=O)ccc1O	> 100 µM
O=C(O)/C(Cl)=C(\Cl)Nc1cccc(C(F)(F)F)c1	> 100 µM
COc1cccc2c1C(=O)C(=O)c1c-2oc(=O)c2cc(C)cc(OC)c12	26.7 µM
CCOC(=O)CSc1nc2ccccc2c(=O)n1N	> 100 µM

---

Test system: SK-MEL-5 melanoma
Assay: NCI tumour cell line growth inhibition, 48 h; in the data active = GI50 below about 0.43 µM; inactive = the rest
Labels: T = active, F = inactive

smiles.string	assigned.label
COc1cc(N2CCC(N3CCN(C)CC3)CC2)ccc1Nc1ncc(Cl)c(Nc2ccccc2P(C)(C)=O)n1	F
O=c1ncc(-c2ccc(C(F)(F)F)cc2)c(NC2CCCCCC2)[nH]1	F
COc1ccc(C(=O)/C=C/c2cc3ccccc3[nH]c2=O)cc1	F
O=S(=O)(/C=C/C=C/S(=O)(=O)c1ccccc1)c1ccccc1	F
COc1cc2c(c(OC)c1OC)-c1ccc(OC)c(=O)cc1[C@@H](NC(=O)CCl)CC2	T
COc1cccc(-c2nn(-c3ccccc3)cc2-c2ccnc(NCCNS(=O)(=O)c3ccc(C(F)(F)F)cc3)c2)c1	F
CCN(Cc1ccc(F)cc1)c1ccc(CO)c(Cl)c1	F
COc1cc2[nH]c(C(=O)c3cc(OC)c(OC)c(OC)c3)c(N)c2cc1C#CCO	T
Nc1ncc(-c2cnn(C3CCNCC3)c2)cc1-c1nc2ccccc2o1	F
COc1ccc(-c2cc(-c3ccc(Nc4nc(Nc5ccc(Cl)cc5)nc(Nc5ccc(Cl)cc5)n4)cc3)no2)cc1	F

---

Tested on: UO-31 renal
Assay: NCI tumour cell line growth inhibition, 48 h

compound	TGI
COc1cc(C(=O)C/C(CCC(=O)Nc2ccccc2[N+](=O)[O-])=N\NC(=O)C(N)=O)ccc1O	> 100 µM
COc1cc(CC2CCc3nc(N)nc(N)c3C2)cc(OC)c1OC (stereo not drawn)	> 71.5 µM
NCC(=O)C(O)C(O)C(O)CO (stereo not drawn)	> 100 µM
CC(=O)C1(c2ccccc2)CCN(Cn2sc3nc(C)cc(C)c3c2=O)CC1	31.8 µM
CC(=O)[O-].CC(=O)[O-].[Mn+2].c1ccc(/C(=N\Nc2ccccn2)c2ccccn2)cc1	3.88 µM
NCCCNc1ccc2c(c1)[n+]([O-])c1ccccc1[n+]2[O-]	> 100 µM
COC(=O)c1ccccc1C1CN=NC12Cc1c(C)cc(C)cc1C2=O (stereo not drawn)	> 100 µM
O=C(O)C(Cc1ccc(O)cn1)NC(=O)C(F)(F)F (stereo not drawn)	> 100 µM
COC(=O)CCc1ccc2c(c1)CCC2	> 100 µM
COc1ccccc1C1C2=C(COC2=O)OC(C)(C)Oc2cc3c(cc21)OCO3 (stereo not drawn)	> 100 µM
CCOC(=O)C1Cc2c(ccc(OC)c2OC)C(=O)C1N (stereo not drawn)	> 100 µM
COC(=O)[C@H](CCSC)NC(=O)c1ccc(CNC(=O)/C=C/c2cccc(Oc3ccccc3)c2)cc1	> 100 µM
COC(=O)c1cc(NC2OCC(OC(C)=O)C(OC(C)=O)C2OC(C)=O)nc(SC)c1C(=O)OC (stereo not drawn)	> 100 µM
CCCCCCN(CCCCCC)C(=N)c1ccnc2ccccc12	13 µM
C=C(C)C1CC=C(C(=O)O)CC1 (stereo not drawn)	4030 µM
O=c1ncc(-c2ccc(C(F)(F)F)cc2)c(NC2CCCCCC2)[nH]1	38.9 µM
COC(=O)c1cc(C)ccc1/C=C1\Cc2cc(C)c(C)cc2C1=O	> 100 µM
CCOC(=O)C1C(=O)CC(C)(O)C(C(=O)OCC)C1c1ccc(N(C)C)cc1 (stereo not drawn)	> 100 µM
CC(C)(Cl)CCC1=C(Cl)C(=O)c2ccccc2C1=O	3.15 µM
CCCCCCCCN(CCCCCCCC)C(=N)c1ccnc2ccccc12	2.29 µM
O=C(CCl)N1CCCCC1C1(c2cc3ccccc3[nH]2)OCCO1 (stereo not drawn)	11.3 µM
C/C(=N\O)c1sc(-n2nc(-c3ccccc3)cc2-c2ccccc2)nc1C	15.3 µM
CC(=O)OCc1nc(C#N)c(N)o1	> 100 µM
